Task for the reader: assign each of the following molecules its reported IC50.
Target: myeloperoxidase (Homo sapiens)
Sequence (P05164 49-745): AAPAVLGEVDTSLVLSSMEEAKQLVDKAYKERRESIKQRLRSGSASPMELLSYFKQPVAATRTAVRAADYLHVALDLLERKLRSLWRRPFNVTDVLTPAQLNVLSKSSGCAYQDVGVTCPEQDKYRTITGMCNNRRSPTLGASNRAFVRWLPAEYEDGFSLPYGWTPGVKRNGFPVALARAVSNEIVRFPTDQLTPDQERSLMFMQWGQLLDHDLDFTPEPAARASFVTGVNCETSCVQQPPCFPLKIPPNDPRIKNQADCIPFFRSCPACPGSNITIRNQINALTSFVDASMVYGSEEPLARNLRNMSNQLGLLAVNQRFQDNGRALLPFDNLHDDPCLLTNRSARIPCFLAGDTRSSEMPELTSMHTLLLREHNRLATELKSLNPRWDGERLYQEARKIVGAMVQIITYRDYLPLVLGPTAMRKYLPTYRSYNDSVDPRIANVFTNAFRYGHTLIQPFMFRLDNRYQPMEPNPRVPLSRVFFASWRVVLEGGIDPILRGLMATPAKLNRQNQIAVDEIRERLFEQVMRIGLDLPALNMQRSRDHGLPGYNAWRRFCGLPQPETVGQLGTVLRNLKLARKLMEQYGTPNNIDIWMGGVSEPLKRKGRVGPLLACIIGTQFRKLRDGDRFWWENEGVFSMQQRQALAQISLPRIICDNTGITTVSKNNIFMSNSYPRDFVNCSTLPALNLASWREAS
Test: MPO Peroxidation Assay (Amplex Red Assay)
Type: biochemical
Details: Amplex Red Assay IC50 value (μM), potency range class

Below: 2 molecules and their reported IC50.
>  <molecule>
Nc1cc([C@H](CCCN2CC[C@H]3C[C@@H]2Cc2ccccc23)c2ccccc2)c2nn[nH]c2n1 [Example 219]

>  <quantity name>
IC50

>  <result>
0.101 to 0.999 µM

$$$$
>  <molecule>
COc1cccc(C(Cc2ccccc2)c2cc(N)nc3[nH]nnc23)c1 (stereo not drawn) [Example 34]

>  <quantity name>
IC50

>  <result>
0.101 to 0.999 µM

$$$$

What measured IC50 goes with Nc1cc(C(CCNC2(c3ccccc3)CCCCC2)c2ccccc2)c2nn[nH]c2n1 (stereo not drawn) [Example 128] ?
1 to 10 µM

Hey, just so you know, these numbers are from patent US11008317B2.
